assayed-system: 11β-HSD1 (Homo sapiens)
protocol-text: Determination of 11β-HSD1 inhibition in HEK293 cells stably transfected with the 11β-HSD1 gene (cortisone to cortisol, LC/MS)
Format: cell-based
Parameters: expressed in transfected cells; host or cells: HEK293 cells, stably transfected
condition-notes: 10 µM compound, 300 nM cortisone, 2 hours, read-out: HSD1 % inh in cells (10 µM)
value-type: inhibition at 10 µM (%)

Record excerpt, results attached:
>>> number("O=C(C1CCCCC1)N1CC2C3CCC(C4CC34)C2C1 (stereo not drawn) [Example 2]")
100
>>> number("N#Cc1ccc(N2CCN(c3ccc(C(=O)N4CC5[C@@H](C4)[C@H]4C=C[C@@H]5[C@@H]5C[C@H]45)cn3)CC2)cc1 (stereo partly drawn) [Example 15]")
100
>>> number("CC(C)(C)C(=O)N1CC2[C@@H](C1)[C@H]1C=C[C@@H]2[C@@H]2C[C@H]12 (stereo partly drawn) [Example 7]")
85
>>> number("O=C(C1CCCCC1)N1CC2[C@@H](C1)[C@H]1C=C[C@@H]2[C@@H]2C[C@H]12 (stereo partly drawn) [Example 1]")
100

[1] Nc1c(Cl)cc(C(=O)N2CC3[C@@H](C2)[C@H]2C=C[C@@H]3[C@@H]3C[C@H]23)cc1Cl (stereo partly drawn) [Example 9]
[2] O=C(C1CC=CCC1)N1CC2[C@@H](C1)[C@H]1C=C[C@@H]2[C@@H]2C[C@H]12 (stereo partly drawn) [Example 10]
Prompt line: Sort 1 and 2 by inhibition at 10 µM descending and give the first. Pick one and reply with its label.
Response line: 1
(1: 77%, 2: 41%)

----------
Here we list compounds with their recorded IC50 when tested on 11β-HSD1 (Homo sapiens, UniProt P28845).
Sequence (P28845 whole entry): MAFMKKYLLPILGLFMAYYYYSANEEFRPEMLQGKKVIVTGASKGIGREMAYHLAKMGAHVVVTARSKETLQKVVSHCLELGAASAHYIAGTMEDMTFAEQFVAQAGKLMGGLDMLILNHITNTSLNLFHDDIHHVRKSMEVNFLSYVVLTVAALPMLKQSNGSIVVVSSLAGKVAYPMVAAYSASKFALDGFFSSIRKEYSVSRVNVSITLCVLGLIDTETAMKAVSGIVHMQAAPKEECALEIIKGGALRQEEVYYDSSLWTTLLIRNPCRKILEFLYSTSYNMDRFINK

>>> result("O=C(C1CCCCC1)N1CC2[C@@H](C1)[C@H]1C=C[C@@H]2[C@@H]2C[C@H]12 (stereo partly drawn) [Example 1]")
"< 50 nM"

Prompt line: Answer briefly: IC50 recorded on 11β-HSD1 (Homo sapiens, UniProt P28845) for O=C(C1CCCCC1)N1CC2C3CCC(C4CC34)C2C1 (stereo not drawn) [Example 2]
Response line: < 50 nM

Prompt line: Answer briefly: IC50 recorded on 11β-HSD1 (Homo sapiens, UniProt P28845) for CC(C)(C)C(=O)N1CC2[C@@H](C1)[C@H]1C=C[C@@H]2[C@@H]2C[C@H]12 (stereo partly drawn) [Example 7]
Response line: 500 to 1000 nM
